experimentalTarget: RePC (Rhizobium etli, UniProt Q2K340)
Construct: gene pyc; full length, N-terminal (His)9 tag, pET-17b, E. coli BL21(DE3) with BirA (biotinylated), 126 kDa subunit, homotetramer
assayOverview: coupled malate dehydrogenase assay of pyruvate carboxylation, […] nm
Assay type: biochemical
measurementContext: hybrid tetramer population (hybrid A) of two co-expressed domain-inactivated mutants; no acetyl CoA; 25 mM NaHCO3, 2.5 mM MgATP, 12 mM pyruvate, pH 7.8, 25 °C; allosteric; read-out: + 0 mM acetyl coenzyme A / Ki
reportedMetric: Ki (mM)
Lab book: enter the figure in mM, no units written.

What does the record list as Ki for N[C@@H](CC(=O)O)C(=O)O [L-aspartate] ?
6.2

====

experimentalTarget: AnPC (Aspergillus nidulans, UniProt Q5B4R8)
Construct: full length, N-terminal (His)9 tag, pET-17b, E. coli BL21(DE3) with BirA (biotinylated), 130 kDa subunit, tetramer
Sequence (Q5B4R8 1-1196): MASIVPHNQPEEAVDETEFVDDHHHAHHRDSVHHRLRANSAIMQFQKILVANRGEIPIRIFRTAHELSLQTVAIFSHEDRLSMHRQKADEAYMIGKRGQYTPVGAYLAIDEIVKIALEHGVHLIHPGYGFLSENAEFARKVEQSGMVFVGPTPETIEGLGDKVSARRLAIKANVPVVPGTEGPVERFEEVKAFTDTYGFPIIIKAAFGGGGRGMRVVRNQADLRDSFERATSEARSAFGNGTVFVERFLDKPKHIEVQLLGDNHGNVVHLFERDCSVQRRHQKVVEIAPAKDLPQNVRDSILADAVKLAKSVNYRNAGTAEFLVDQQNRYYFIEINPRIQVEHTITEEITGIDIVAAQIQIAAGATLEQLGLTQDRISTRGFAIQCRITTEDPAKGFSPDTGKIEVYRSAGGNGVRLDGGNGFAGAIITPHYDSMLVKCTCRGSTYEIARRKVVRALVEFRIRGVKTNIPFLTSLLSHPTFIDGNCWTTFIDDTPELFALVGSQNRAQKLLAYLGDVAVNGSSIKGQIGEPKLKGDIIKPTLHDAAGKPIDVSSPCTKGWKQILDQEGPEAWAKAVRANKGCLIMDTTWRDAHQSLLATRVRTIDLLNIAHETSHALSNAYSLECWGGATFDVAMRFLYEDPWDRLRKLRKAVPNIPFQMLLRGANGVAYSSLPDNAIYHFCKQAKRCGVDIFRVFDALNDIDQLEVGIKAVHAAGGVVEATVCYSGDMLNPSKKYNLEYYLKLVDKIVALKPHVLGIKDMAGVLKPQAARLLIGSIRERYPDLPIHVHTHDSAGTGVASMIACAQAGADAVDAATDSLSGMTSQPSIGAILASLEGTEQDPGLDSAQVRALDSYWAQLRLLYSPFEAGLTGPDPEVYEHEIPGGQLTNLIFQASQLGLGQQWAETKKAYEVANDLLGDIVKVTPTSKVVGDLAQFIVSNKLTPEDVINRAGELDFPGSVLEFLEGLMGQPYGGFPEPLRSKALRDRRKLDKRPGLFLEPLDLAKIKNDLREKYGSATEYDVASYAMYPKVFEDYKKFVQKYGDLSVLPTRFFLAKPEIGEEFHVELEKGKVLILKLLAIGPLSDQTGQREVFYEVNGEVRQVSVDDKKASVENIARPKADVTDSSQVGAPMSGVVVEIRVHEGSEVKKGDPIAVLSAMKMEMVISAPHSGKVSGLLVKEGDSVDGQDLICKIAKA
assayOverview: coupled malate dehydrogenase assay of pyruvate carboxylation, […] nm
measurementContext: read-out: + 0 mM acetyl coenzyme A / Ki
reportedMetric: pKi
Friendly reminder that pKi comes from taking -log10 of the concentration in mol/L.

What does the record list as pKi for N[C@@H](CC(=O)O)C(=O)O [L-aspartate] ?
2.59

====

experimentalTarget: RePC (Rhizobium etli)
Construct: gene pyc; full length, N-terminal (His)9 tag, pET-17b, E. coli BL21(DE3) with BirA (biotinylated), 126 kDa subunit, homotetramer
assayOverview: coupled malate dehydrogenase assay of pyruvate carboxylation, […] nm
Type: biochemical
measurementContext: read-out: + 0 mM acetyl coenzyme A / Ki
reportedMetric: Ki

What does the record list as Ki for N[C@@H](CC(=O)O)C(=O)O [L-aspartate] ?
4.7 mM

From: paper PMC5895798
